- Test system: Mus musculus
- method: Toxicity in BDF1 mouse xenografted with mouse L1210 cells assessed as survival at 6.4 mg/kg, ip after 5 days
- Format: organism-based
- Design: dose 6.4 mg/kg, route intraperitoneal
- experimentalSetup: in vivo, 120 h
readoutKind: Activity

| givenSmiles | testedSystem | measured |
| --- | --- | --- |
| CC[C@@]1(O)C[C@H](O[C@H]2C[C@H](NC)[C@H](O[C@H]3C[C@H](O)[C@H](O[C@@H]4C[C@H](O)[C@H](O)[C@H](C)O4)[C@H](C)O3)[C@@H](C)O2)c2c(cc3c(c2O)C(=O)c2c(O)ccc(O)c2C3=O)[C@H]1C(=O)OC | Mus musculus | Non-toxic |
| CC[C@@]1(O)C[C@H](O[C@H]2C[C@H](N(C)C)[C@H](O[C@H]3C[C@H](O)[C@H](O)[C@@H](C)O3)[C@@H](C)O2)c2c(cc3c(c2O)C(=O)c2c(O)ccc(O)c2C3=O)[C@H]1C(=O)OC | Mus musculus | Non-toxic |
| CC[C@@]1(O)C[C@H](O[C@H]2C[C@H](N(C)C)[C@H](O[C@H]3C[C@H](O)[C@H](O[C@@H]4C[C@H](O)[C@H](O)[C@H](C)O4)[C@H](C)O3)[C@@H](C)O2)c2c(cc3c(c2O)C(=O)c2c(O)ccc(O)c2C3=O)[C@@H]1C(=O)OC | Mus musculus | Non-toxic |
| CC[C@@]1(O)C[C@H](O[C@H]2C[C@H](N(C)C)[C@H](O[C@H]3C[C@H](O)[C@H](O[C@@H]4O[C@@H](C)C(=O)C=C4N)[C@@H](C)O3)[C@@H](C)O2)c2c(cc3c(c2O)C(=O)c2c(O)ccc(O)c2C3=O)[C@H]1C(=O)OC | Mus musculus | Toxic |
